method-summary: Phase 1 single-dose study, urinary excretion of solriamfetol
Type: in vivo, human
experimental-setup: both sexes, human, urine, oral, 75 mg, Group 2 mild renal impairment; single 75-mg dose; read-out: CLR, renal clearance, mean ± SD (%CV) (converted)

{"molecule": "NC(=O)OC[C@H](N)Cc1ccccc1 [solriamfetol, [R]-2-amino-3-phenylpropylcarbamate]", "unit-string": "mL/min", "CL renal": 155}

---

method-summary: Phase 1 single-dose study, plasma PK of solriamfetol by level of renal function
Format: in vivo, human
experimental-setup: both sexes, human, plasma, oral, 75 mg, Group 4 severe renal impairment; single 75-mg dose; read-out: t½, mean ± SD (%CV) (converted)

{"compound": "NC(=O)OC[C@H](N)Cc1ccccc1 [solriamfetol, [R]-2-amino-3-phenylpropylcarbamate]", "half-life [h]": 29.6}

---

method-summary: Phase 1 single-dose study, plasma PK of solriamfetol by level of renal function
Type: in vivo, human
experimental-setup: both sexes, human, plasma, oral, 75 mg, Group 3 moderate renal impairment; single 75-mg dose; over 48 hours; read-out: AUCt, geometric LS mean (converted)
measured-parameter: AUC(0-t) (ng·h/mL)

{"molecule": "NC(=O)OC[C@H](N)Cc1ccccc1 [solriamfetol, [R]-2-amino-3-phenylpropylcarbamate]", "measured-parameter": "AUC(0-t)", "unit-string": "ng·h/mL", "observed-value": 8960}

---

method-summary: Phase 1 single-dose study, plasma PK of solriamfetol by level of renal function
Format: in vivo, human
experimental-setup: both sexes, human, plasma, oral, 75 mg, Group 3 moderate renal impairment; single 75-mg dose; read-out: Cmax, mean ± SD (%CV)

{"compound": "NC(=O)OC[C@H](N)Cc1ccccc1 [solriamfetol, [R]-2-amino-3-phenylpropylcarbamate]", "unit-string": "ng/mL", "Cmax": 517}

---

method-summary: Phase 1 single-dose study, plasma PK of solriamfetol by level of renal function
Format: in vivo, human
experimental-setup: both sexes, human, plasma, oral, 75 mg, Group 2 mild renal impairment; single 75-mg dose; over 48 h; read-out: AUCt, mean ± SD (%CV)

{"compound": "NC(=O)OC[C@H](N)Cc1ccccc1 [solriamfetol, [R]-2-amino-3-phenylpropylcarbamate]", "AUC(0-t) (ng·h/mL)": 6610}

---

method-summary: Phase 1 single-dose study, plasma PK of solriamfetol by level of renal function
Assay type: in vivo, human
experimental-setup: both sexes, human, plasma, oral, 75 mg, Group 3 moderate renal impairment; single 75-mg dose; read-out: Vd/F, mean ± SD (%CV)

{"compound": "NC(=O)OC[C@H](N)Cc1ccccc1 [solriamfetol, [R]-2-amino-3-phenylpropylcarbamate]", "Vd/F (L)": 152}

---

method-summary: Phase 1 single-dose study, plasma PK of solriamfetol by level of renal function
Assay type: in vivo, human
experimental-setup: both sexes, human, plasma, oral, 75 mg, Group 3 moderate renal impairment; single 75-mg dose; read-out: tmax, median (min, max)
measured-parameter: Tmax (h)

{"compound": "NC(=O)OC[C@H](N)Cc1ccccc1 [solriamfetol, [R]-2-amino-3-phenylpropylcarbamate]", "observed-value": 1.5}

---

method-summary: Phase 1 single-dose study, plasma PK of solriamfetol by level of renal function
Assay type: in vivo, human
experimental-setup: both sexes, human, plasma, oral, 75 mg, Group 4 severe renal impairment; single 75-mg dose; read-out: AUC∞, geometric LS mean
measured-parameter: AUC(0-inf)

{"molecule": "NC(=O)OC[C@H](N)Cc1ccccc1 [solriamfetol, [R]-2-amino-3-phenylpropylcarbamate]", "observed-value": "19100 ng·h/mL"}
